# target-or-test-system: substance P receptor from human lymphoblast cells (IM-9) (Homo sapiens, UniProt P25103)
# Construct: The receptor was prepared from human lymphoblast cells (IM-9); endogenous in cells; host or cells: IM-9 human lymphoblast cells (crude membrane fraction, 40,000xG pellet)
# Sequence (P25103 whole entry): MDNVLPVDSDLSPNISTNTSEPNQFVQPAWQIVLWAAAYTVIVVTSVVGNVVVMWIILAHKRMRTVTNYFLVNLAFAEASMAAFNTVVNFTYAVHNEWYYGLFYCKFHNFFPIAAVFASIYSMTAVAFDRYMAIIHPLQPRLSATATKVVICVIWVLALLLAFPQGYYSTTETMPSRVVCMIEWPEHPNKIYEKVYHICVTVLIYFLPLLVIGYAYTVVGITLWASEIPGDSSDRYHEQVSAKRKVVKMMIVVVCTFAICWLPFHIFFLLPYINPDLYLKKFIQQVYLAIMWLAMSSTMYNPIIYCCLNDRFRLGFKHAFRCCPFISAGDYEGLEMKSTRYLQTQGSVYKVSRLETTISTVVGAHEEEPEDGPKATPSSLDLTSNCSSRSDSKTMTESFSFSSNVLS
# procedure-details: Radioligand receptor binding inhibitory activity (125I-BHSP binding, receptor from human lymphoblast cells (IM-9))
# condition-description: 125I-BHSP binding, receptor from human lymphoblast cells (IM-9), 25° C., 30 minutes; read-out: IC50 Value
pIC50: −log10 of the molar value. Where a name gives a salt, the structure may show the parent alone.
// Not fulfilled strictly below 10 in pIC50; Fulfilled otherwise

Check out these entries, answers already filled in.
[[record]]
compound = "COc1ccc(-n2nnnc2C(F)(F)F)cc1CNC1CCN(C(=O)CN2C(=O)CCC2=O)CC1c1ccccc1 (racemic)"
assigned_category = "Fulfilled"

[[record]]
compound = "CNC(=O)N1CC[C@H](NCc2cc(-n3nnnc3C(F)(F)F)ccc2OC)[C@H](c2ccccc2)C1 (single isomer, unassigned) [Example 72, hydrochloride]"
assigned_category = "Fulfilled"


From here, focus on the item given below.
Item CNC(=O)N1CCC(OCc2cc(C(F)(F)F)cc(C(F)(F)F)c2)C(c2ccccc2)C1 (single isomer, unassigned; (+)) with pIC50 of 10 or above?
Not fulfilled

---

# target-or-test-system: substance P receptor from human lymphoblast cells (IM-9) (Homo sapiens)
# Construct: The receptor was prepared from human lymphoblast cells (IM-9); endogenous in cells; host or cells: IM-9 human lymphoblast cells (crude membrane fraction, 40,000xG pellet)
# procedure-details: Radioligand receptor binding inhibitory activity (125I-BHSP binding, receptor from human lymphoblast cells (IM-9))
# condition-description: 125I-BHSP binding, receptor from human lymphoblast cells (IM-9), 25° C., 30 minutes; read-out: IC50 Value
Structures can show the parent of a compound that is named as a salt.
Listed next: entries and their corresponding IC50.
Express your answer in nM, writing the number without its unit.

[[record]]
molecule = "COc1ccc(-n2nnnc2C(F)(F)F)cc1CNC1CCN(C(=O)CO)CC1c1ccccc1 (racemic)"
result = 0.085


// IC50 lookup, key: CCNC(=O)N1CCC(NCc2cc(OC(F)(F)F)ccc2OC)C(c2ccccc2)C1 (single isomer, unassigned; (+))
0.07

// IC50 lookup, key: COc1ccc(-n2nnnc2C(F)(F)F)cc1CNC1CCN(C(=O)CS(C)(=O)=O)CC1c1ccccc1 (racemic)
0.08

// IC50 lookup, key: CNC(=O)N1CCC(NCc2cc(-n3nnnc3C(F)(F)F)cc3c2OCC3)C(c2ccccc2)C1 (racemic)
0.11

// IC50 lookup, key: COc1ccc(-n2nnnc2C(F)(F)F)cc1CNC1CCN(C(=O)Cn2cnnn2)CC1c1ccccc1 (racemic)
0.067

// IC50 lookup, key: CCNC(=O)N1CC[C@H](NCc2cc(-n3nnnc3C(F)(F)F)ccc2OC)[C@H](c2ccccc2)C1 (single isomer, unassigned) [Example 75, hydrochloride]
0.025

---

Listed next: entries and their corresponding pIC50.
# target-or-test-system: substance P receptor from human lymphoblast cells (IM-9) (Homo sapiens)
# Construct: The receptor was prepared from human lymphoblast cells (IM-9); endogenous in cells; host or cells: IM-9 human lymphoblast cells (crude membrane fraction, 40,000xG pellet)
# procedure-details: Radioligand receptor binding inhibitory activity (125I-BHSP binding, receptor from human lymphoblast cells (IM-9))
# condition-description: 125I-BHSP binding, receptor from human lymphoblast cells (IM-9), 25° C., 30 minutes; read-out: IC50 Value
# Protocol: Radioligand receptor binding inhibitory activity (Binding inhibitory activity using receptor from human lymphoblast cells (IM-9)) The method of M. A. Cascieri et al., “Molecular Pharmacology 42, p. […] The receptor was prepared from human lymphoblast cells (IM-9). IM-9 cells (2×10^5 cells/ml) were inoculated and incubated for 3 days (one liter), which was then subjected to centrifuge for 5 minutes at 500×G to obtain cell pellets. […]
Where a name gives a salt, the structure may show the parent alone.
Scale explanation: pIC50 corresponds to minus log10 of a concentration expressed in moles per litre.

Guide cases for pIC50, answers given:
[[record]]
compound = "COc1ccc(-n2nnnc2C(F)(F)F)cc1CNC1CCN(C(=O)C2CCN(C(C)=O)CC2)CC1c1ccccc1 (single isomer, unassigned; (-)) [Example 81, hydrochloride]"
result = 10.24

[[record]]
compound = "COc1ccc(-n2nnnc2C(F)(F)F)cc1CNC1CCN(C(=O)C2CCN(S(C)(=O)=O)CC2)CC1c1ccccc1 (racemic)"
result = 10.02

[[record]]
compound = "CC(=O)N1CCC(C(=O)N2CC[C@H](NCc3cc(-n4nnnc4C(F)(F)F)cc4c3OCC4)[C@H](c3ccccc3)C2)CC1 (single isomer, unassigned) [Example 88, hydrochloride]"
result = 10.22

[[record]]
compound = "CCNC(=O)N1CCC(NCc2cc(-n3nnnc3C(F)(F)F)cc3c2OCC3)C(c2ccccc2)C1 (single isomer, unassigned; (-)) [Example 84, hydrochloride]"
result = 10.29

[[record]]
compound = "CC(=O)N1CCC(C(=O)N2CC[C@H](OCc3cc(C(F)(F)F)cc(C(F)(F)F)c3)[C@H](c3ccccc3)C2)CC1"
result = 9.82


Consider the additional compound presented here.
// pIC50 lookup, key: COCC(=O)N1CC[C@H](NCc2cc(-n3nnnc3C(F)(F)F)ccc2OC)[C@H](c2ccccc2)C1 (single isomer, unassigned) [Example 78, hydrochloride]
10.22
